system: recominbant human tryptase, beta, from lung (Homo sapiens, UniProt P20231)
Construct: purchased Promega or Enzo Life Sciences G5631 or BML-SE418
Sequence (P20231 31-275): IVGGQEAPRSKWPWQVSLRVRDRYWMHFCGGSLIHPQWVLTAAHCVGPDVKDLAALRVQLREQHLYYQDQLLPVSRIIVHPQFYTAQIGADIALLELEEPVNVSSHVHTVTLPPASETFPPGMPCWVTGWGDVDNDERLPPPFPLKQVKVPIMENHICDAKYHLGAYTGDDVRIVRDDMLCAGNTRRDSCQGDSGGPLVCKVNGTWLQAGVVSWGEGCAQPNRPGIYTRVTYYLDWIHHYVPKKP
measurement description: Inhibition of tryptase activity by monomers and multimers (Boc-Gln-Ala-Arg-AMC fluorescence)
Format: biochemical
condition context: monomers against tryptase, Table 5; read-out: Monomer IC50 range
pIC50: −log10 of the molar value.
experimental endpoint: pIC50

// solved cases for pIC50 follow
NCc1cccc(C2CCN(C(=O)c3cc(O)c(O)c(O)c3)CC2)c1 [T69] ... 5.00 to 6.00
NCc1cccc(C2CCN(C(=O)c3cccc4sc(Br)cc34)CC2)c1 [T37A] ... 5.00 to 6.00
CC(O)(Cn1ccc2cc(C(=O)N3CCC(c4cccc(CN)c4)CC3)ccc21)C(=O)O (stereo not drawn) [T81] ... 6.00 to 10.00
NCc1cccc(C2CCN(C(=O)c3cccc(OCC(O)(C(=O)O)c4ccccc4)c3)CC2)c1 (stereo not drawn) [T73] ... 6.00 to 10.00
CC(C)(C)OC(=O)NCc1cccc(C2CCN(C(=O)c3cccc(NC(=O)C(O)C(C)(C)O)c3)CC2)c1 (stereo not drawn) [T55D] ... 6.00 to 10.00
NCc1cccc(C2CCN(C(=O)c3cccc(NC(=O)C(=O)C4(O)CCC4)c3)CC2)c1 [T21] ... 6.00 to 10.00

Problem: Reported pIC50 for CONC(=O)c1ccc(/C=C/C(=O)N2CCC(c3cccc(CN)c3)CC2)cc1O [T76A] : what is it?
Solution: 6.00 to 10.00

Problem: Would you mind doing NCc1cccc(C2CCN(C(=O)c3cc4cc(O)c(O)cc4oc3=O)CC2)c1 [T100] as well?
Solution: 4.19 to 5.00

Problem: Let us now turn to NCc1cccc(C2CCN(C(=O)c3cccc(-c4ccc5c(c4)COB5O)c3)CC2)c1 [T36M]
Solution: 6.00 to 10.00

###

system: recominbant human tryptase, beta, from lung (Homo sapiens)
Construct: purchased Promega or Enzo Life Sciences G5631 or BML-SE418
measurement description: Inhibition of tryptase activity by monomers and multimers (Boc-Gln-Ala-Arg-AMC fluorescence)
Assay type: biochemical
condition context: monomers against tryptase, Table 5; read-out: Monomer IC50 range
pIC50: −log10 of the molar value. Structures can show the parent of a compound that is named as a salt.
Some compounds, each annotated with its measured pIC50.

See these solved cases before continuing.
NCc1cccc(C2CCN(C(=O)c3cccc(OCC(O)(C(=O)O)C4CCCC4)c3)CC2)c1 (stereo not drawn) ... 6.00 to 10.00
CC(O)(COc1cccc(C(=O)N2CCC(c3cccc(CN)c3)CC2)c1)C(=O)O (stereo not drawn) ... 6.00 to 10.00

Problem: Give its pIC50 value. Item: NCc1cccc(C2CCN(C(=O)c3cccc(N4C[C@@H](O)[C@@H](O)C4)c3)CC2)c1 [T25B]
Solution: 6.00 to 10.00

Problem: Also check NCc1cccc(C2CCN(C(=O)/C=C/c3ccc(O)c(O)c3)CC2)c1 [T24, hydrochloride]
Solution: 5.00 to 6.00

Problem: Another compound to check: NCc1cccc(C2CCN(C(=O)Cc3cc(B(O)O)ccc3F)CC2)c1
Solution: 5.00 to 6.00

Problem: // repeat for NCc1ccc(CNC(=O)N2CCN(C(=O)CNC(=O)C(=O)CO)CC2)cc1 and report
Solution: 6.00 to 10.00

Problem: Okay, and NCc1cccc(C2CCN(C(=O)c3cccc(NC(=O)c4ccc(O)c(O)c4)c3)CC2)c1 ?
Solution: 6.00 to 10.00

Problem: Now consider NCc1cccc(C2CCN(C(=O)c3cccc(OCC(=O)N4C[C@@H](O)[C@@H](O)C4)c3)CC2)c1 .
Solution: 5.00 to 6.00

Problem: Input NCc1cccc(C2CCN(C(=O)c3ccc(O)c(CO)c3)CC2)c1
Solution: 6.00 to 10.00

Problem: Another compound to look at: NCc1cccc(C2CCN(C(=O)c3cccc(/C=C/B(O)O)c3)CC2)c1
Solution: 6.00 to 10.00

###

system: recominbant human tryptase, beta, from lung (Homo sapiens, UniProt P20231)
Construct: purchased Promega or Enzo Life Sciences G5631 or BML-SE418
measurement description: Inhibition of tryptase activity by monomers and multimers (Boc-Gln-Ala-Arg-AMC fluorescence)
Type: biochemical
condition context: monomers against tryptase, Table 5; read-out: Monomer IC50 range
pIC50: −log10 of the molar value. Counter-ions that a name gives are not always drawn.
experimental endpoint: pIC50

Take a look at these entries with their results.
NCc1cccc(C2CCN(C(=O)c3cccc4sc(B(O)O)cc34)CC2)c1 [T37] ... 5.00 to 6.00
NCc1ccc(C(=O)NCc2ccc(OCCC(=O)N3CC(=O)[C@H](O)C3)cc2)cc1 [CF12, hydrochloride] ... 5.00 to 6.00
NCc1cccc(C2CCN(C(=O)c3ccc(Cl)c(Cl)c3)CC2)c1 [CF5] ... 6.00 to 10.00

Problem: What measured pIC50 goes with NCc1ccc(CNC(=O)N2CCN(C(=O)CNC(=O)C(O)CO)CC2)cc1 (stereo not shown) [CF13, hydrochloride] ?
Solution: 5.00 to 6.00

Problem: What about NCc1cccc(C2CCN(C(=O)/C=C/c3cccc(O)c3CO)CC2)c1 [T42] ?
Solution: 5.00 to 6.00

Problem: // query: NCc1cccc(C2CCN(C(=O)/C=C/c3ccc(C(N)=O)c(O)c3)CC2)c1 [T76]
Solution: 6.00 to 10.00

Problem: What about this compound? CC1(O)CN(c2cccc(C(=O)N3CCC(c4cccc(CN)c4)CC3)c2)CC1(C)O (stereo not shown) [T67]
Solution: 6.00 to 10.00

Problem: Follow-up entry: NCc1ccc(C(=O)NCc2ccc(OCCC(=O)N3CC(=O)[C@@H](O)C3)cc2)cc1 [CF10, hydrochloride]
Solution: 4.19 to 5.00

Problem: Cool, now NCc1cccc(C2CCN(C(=O)c3cc4ccc(O)c(O)c4oc3=O)CC2)c1 [T102]
Solution: 6.00 to 10.00

Problem: And then NCc1ccc2c(c1)C1(CCN(C(=O)c3ccc(OCC(O)CO)cc3)CC1)CO2 (stereo not shown) [CF15, hydrochloride] , what is it?
Solution: 5.00 to 6.00

###

system: recominbant human tryptase, beta, from lung (Homo sapiens)
Construct: purchased Promega or Enzo Life Sciences G5631 or BML-SE418
measurement description: Inhibition of tryptase activity by monomers and multimers (Boc-Gln-Ala-Arg-AMC fluorescence)
Type: biochemical
condition context: monomers against tryptase; read-out: IC50 range group of additional monomers (boronic acid, benzooxaborole, ligands)
# Lookup of reported IC50 keyed by entry

Example cases with answers are listed next.
NCc1cccc(C2CCN(C(=O)C3CC4CCC3C(O)C4O)CC2)c1 (racemic) [T142ENDOANTI] ... 0.0001 to 1 µM
CONC(=O)c1ccc(/C=C/C(=O)N2CCC(c3cccc(CN)c3)CC2)cc1O [T76A] ... 0.0001 to 1 µM
Cc1c(CC(=O)N2CCC(c3cccc(CN)c3)CC2)c(=O)oc2cc(N(C)Cc3ccccc3B(O)O)ccc12 [T144] ... 1 to 10 µM
NCc1ccc2c(c1)C1(CCN(C(=O)c3cc(O)c(O)c(Cl)c3)CC1)CO2 [T78SPIRO] ... 0.0001 to 1 µM
CC(C)(C)ONC(=O)c1cc(C(=O)N2CCC3(CC2)COc2ccc(CN)cc23)ccc1O [T920TBSPIRO] ... 1 to 10 µM
CONC(=O)c1cc(C(=O)N2CCC3(CC2)COc2ccc(CN)cc23)cc(C)c1O [T114Spiro] ... 0.0001 to 1 µM
NCc1cccc(C2CCN(C(=O)c3cc(O)c(O)c(Cl)c3)CC2)c1 [T78] ... 0.0001 to 1 µM

Could you now consider this next compound?
Problem: I have this compound here, NCc1cccc(C2CCN(C(=O)c3cc(O)c(O)c(O)c3)CC2)c1 [T69] , and I need its recorded IC50.
Solution: 1 to 10 µM

###

IC50 values, listed per item
system: recominbant human tryptase, beta, from lung (Homo sapiens, UniProt P20231)
Construct: purchased Promega or Enzo Life Sciences G5631 or BML-SE418
measurement description: Inhibition of tryptase activity by monomers and multimers (Boc-Gln-Ala-Arg-AMC fluorescence)
Format: biochemical
condition context: monomers against tryptase; read-out: IC50 range group of additional monomers (boronic acid, benzooxaborole, ligands)

NCc1cccc(C2CCN(C(=O)c3cccc(OCCC(=O)N4C[C@@H](O)[C@@H](O)C4)c3)CC2)c1 [T53] ... 0.1 to 1000 nM
NCc1cccc(C2CCN(C(=O)c3cccc(NC(=O)c4ccc(O)c(O)c4)c3)CC2)c1 [T71] ... 0.1 to 1000 nM
CC(C)(O)c1ccc(/C=C/C(=O)N2CCC(c3cccc(CN)c3)CC2)cc1O [T41GEM] ... 0.1 to 1000 nM
NCc1cccc(C2CCN(C(=O)/C=C/c3cc(O)c(O)c(O)c3)CC2)c1 [T43] ... 0.1 to 1000 nM

Problem: Can you share its IC50? I mean this compound: NCc1cccc(C2CCN(C(=O)c3cc(=O)oc4c(O)c(O)ccc34)CC2)c1 [T96]
Solution: 1000 to 10000 nM
